Item-by-item account of IC50
# target-of-assay: Recombinant human Mat2a (Homo sapiens (Human), UniProt P31153)
# Sequence (P31153 whole entry): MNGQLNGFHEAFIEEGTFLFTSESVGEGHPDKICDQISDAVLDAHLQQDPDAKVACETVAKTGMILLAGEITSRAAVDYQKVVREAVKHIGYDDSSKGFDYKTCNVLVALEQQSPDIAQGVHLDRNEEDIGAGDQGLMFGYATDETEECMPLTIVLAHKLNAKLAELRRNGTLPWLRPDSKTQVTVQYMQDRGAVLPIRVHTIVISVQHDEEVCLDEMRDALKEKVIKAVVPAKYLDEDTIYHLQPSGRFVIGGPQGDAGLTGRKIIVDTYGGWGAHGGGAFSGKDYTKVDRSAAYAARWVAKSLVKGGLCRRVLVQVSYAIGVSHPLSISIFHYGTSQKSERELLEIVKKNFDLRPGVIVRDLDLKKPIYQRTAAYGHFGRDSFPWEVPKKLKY
# test-summary: Determination of Mat2A activity (384 well absorbance-based assay, Biomol Green)
# Assay type: biochemical
# test-settings: 12.5 nM Mat2A, 100 μM ATP and Methionine, 2% DMSO, 120 minutes at RT, absorbance at 635 nm; read-out: MAT2A_LEC IC50 (uM) (Num)
Please respond with the number in µM and leave the unit unwritten.

# count of solved cases: 4
COc1cc(-c2nccc3[nH]nc(C4CC4)c23)ccc1S(C)(=O)=O [Example 2]: 0.37
Cc1cc(-c2ncc(O)c3[nH]nc(C4CC4)c23)ccc1S(C)(=O)=O [Example 64]: 0.2
Cc1cc(-c2nccc3[nH]nc(C4CC4)c23)ccc1S(=O)(=O)N(C)C [Example 5]: 0.17
CS(=O)(=O)c1ccc(-c2nccc3[nH]nc(C4CC4)c23)cc1C(F)(F)F [Example 4]: 0.24

So, Cc1cc(-c2nccc3[nH]nc(OC(F)F)c23)ccc1S(=O)(=O)CC1CC1 [Example 29] ? Its IC50 was 0.29

----------
# target-of-assay: Recombinant human Mat2a (Homo sapiens (Human))
# test-summary: Determination of Mat2A activity (384 well absorbance-based assay, Biomol Green)
# Assay type: biochemical
# test-settings: 12.5 nM Mat2A, 100 μM ATP and Methionine, 2% DMSO, 120 minutes at RT, absorbance at 635 nm; read-out: MAT2A_LEC IC50 (uM) (Num)
Please respond with 1 when measured IC50 is strictly beneath 0.1 µM, and with 0 in all other cases.

Worked examples, 3 compounds total:
CS(=O)(=O)c1ccc(-c2c(S(C)(=O)=O)ccc3[nH]nc(C4CC4)c23)cc1C(F)F: 1
COc1n[nH]c2ccnc(-c3ccc(S(C)(=O)=O)c(C)c3)c12: 0
Cc1cc(-c2c(S(C)(=O)=O)ccc3[nH]nc(OC(F)F)c23)ccc1S(=O)(=O)C1CC1: 1

Query block: Regarding CS(=O)(=O)c1ccc(-c2nccc3[nH]nc(C4CC4)c23)cc1C(F)F , kindly confirm whether its IC50 is beneath 0.1 µM.
Result block: 0

Query block: Regarding Cc1cc(-c2nncc3[nH]nc(C4CC4)c23)ccc1S(C)(=O)=O , kindly confirm whether its IC50 is beneath 0.1 µM.
Result block: 0

Query block: Regarding Cc1cc(-c2c(C(N)=O)ncc3[nH]nc(C4CC4)c23)ccc1S(C)(=O)=O , kindly confirm whether its IC50 is beneath 0.1 µM.
Result block: 1

----------
# target-of-assay: Recombinant human Mat2a (Homo sapiens (Human), UniProt P31153)
# test-summary: Determination of Mat2A activity (384 well absorbance-based assay, Biomol Green)
# Type: biochemical
# test-settings: 12.5 nM Mat2A, 100 μM ATP and Methionine, 2% DMSO, 120 minutes at RT, absorbance at 635 nm; read-out: MAT2A_LEC IC50 (uM) (Num)
measured-metric: IC50 (µM)
Please respond with the number in µM and leave the unit unwritten.

# count of solved cases: 2
Cc1cc(-c2ncc(NCCCCN)c3[nH]nc(C4CC4)c23)ccc1S(C)(=O)=O [Example 102]: 0.06
Cc1cc(-c2nccc3[nH]nc(C4CC4)c23)ccc1S(=O)(=O)C1CC1 [Example 7]: 0.046

Let's switch to this molecule now.
So, CC(=O)NCCCNc1cnc(-c2ccc(S(C)(=O)=O)c(C)c2)c2c(C3CC3)n[nH]c12 [Example 100] ? Its IC50 was 0.03

----------
# target-of-assay: Recombinant human Mat2a (Homo sapiens (Human))
# test-summary: Determination of Mat2A activity (384 well absorbance-based assay, Biomol Green)
# Assay type: biochemical
# test-settings: 12.5 nM Mat2A, 100 μM ATP and Methionine, 2% DMSO, 120 minutes at RT, absorbance at 635 nm; read-out: MAT2A_LEC IC50 (uM) (Num)
Item-by-item account of IC50
Please respond with the number in µM and leave the unit unwritten.

CS(=O)(=O)c1ccc(-c2nccc3[nH]nc(OC(F)F)c23)cc1C(F)F [Example 31]: 0.033
Cc1cc(-c2c([S+](C)[O-])ccc3[nH]nc(C4CC4)c23)ccc1S(C)(=O)=O (centres unmarked) [Example 76]: 0.26

So, Cc1cc(-c2nccc3[nH]nc(Br)c23)ccc1S(C)(=O)=O [Example 56] ? Its IC50 was 0.19

So, Cc1cc(-c2nccc3[nH]nc(C4COC4)c23)ccc1S(C)(=O)=O [Example 28] ? Its IC50 was 0.51

So, Cc1cc(-n2c(=O)c(C3CC3)cc3[nH]nc(C4CC4)c32)ccc1S(C)(=O)=O [Example 81] ? Its IC50 was 0.079

----------
# target-of-assay: Recombinant human Mat2a (Homo sapiens (Human), UniProt P31153)
# test-summary: Determination of Mat2A activity (384 well absorbance-based assay, Biomol Green)
# Format: biochemical
# test-settings: 12.5 nM Mat2A, 100 μM ATP and Methionine, 2% DMSO, 120 minutes at RT, absorbance at 635 nm; read-out: MAT2A_LEC IC50 (uM) (Num)
Please respond with fulfilled when measured IC50 is strictly beneath 0.04 µM, and with not fulfilled in all other cases.

Worked examples, 3 compounds total:
Cc1cc(-c2c(C#N)ccc3[nH]cc(C4CC4)c23)ccc1S(C)(=O)=O [Example 45]: fulfilled
O=S(=O)(c1ccc(-c2nccc3[nH]nc(C4CC4)c23)cc1Cl)C1CC1 [Example 8]: not fulfilled
Cc1cc(-c2nccc3[nH]nc(C(C)C)c23)ccc1S(C)(=O)=O [Example 19]: not fulfilled

Turning now to a further record.
Query block: Regarding Cc1cc(-c2nccc3[nH]nc(OC(F)F)c23)ccc1S(=O)(=O)C1COC1 [Example 35] , kindly confirm whether its IC50 is beneath 0.04 µM.
Result block: not fulfilled

----------
# target-of-assay: Recombinant human Mat2a (Homo sapiens (Human), UniProt P31153)
# test-summary: Determination of Mat2A activity (384 well absorbance-based assay, Biomol Green)
# Assay type: biochemical
# test-settings: 12.5 nM Mat2A, 100 μM ATP and Methionine, 2% DMSO, 120 minutes at RT, absorbance at 635 nm; read-out: MAT2A_LEC IC50 (uM) (Num)
measured-metric: IC50 (µM)
Please respond with the number in µM and leave the unit unwritten.

Cc1cc(-c2nccc3[nH]nc(-c4ccsc4)c23)ccc1S(C)(=O)=O [Example 65]: 0.52
Cc1cc(-c2c(S(=O)(=O)N(C)C)ccc3[nH]nc(C4CC4)c23)ccc1S(C)(=O)=O [Example 114]: 0.03
CS(=O)(=O)c1ccc(-c2nccc3[nH]nc(C(F)(F)F)c23)cc1 [Example 11]: 0.28

So, COc1ncc2[nH]nc(C3CC3)c2c1-c1ccc(S(C)(=O)=O)cc1 [Example 6] ? Its IC50 was 0.17

----------
Item-by-item account of IC50
# target-of-assay: Recombinant human Mat2a (Homo sapiens (Human))
# test-summary: Determination of Mat2A activity (384 well absorbance-based assay, Biomol Green)
# Format: biochemical
# test-settings: 12.5 nM Mat2A, 100 μM ATP and Methionine, 2% DMSO, 120 minutes at RT, absorbance at 635 nm; read-out: MAT2A_LEC IC50 (uM) (Num)
Please respond with the number in µM and leave the unit unwritten.

CC(=O)NCCOCCNc1cnc(-c2ccc(S(C)(=O)=O)c(C)c2)c2c(C3CC3)n[nH]c12: 0.07

Let's switch to this compound now.
So, CNS(=O)(=O)c1ccc(-c2nccc3[nH]nc(OC(F)F)c23)cc1C ? Its IC50 was 0.029

----------
# target-of-assay: Recombinant human Mat2a (Homo sapiens (Human), UniProt P31153)
# test-summary: Determination of Mat2A activity (384 well absorbance-based assay, Biomol Green)
# Format: biochemical
# test-settings: 12.5 nM Mat2A, 100 μM ATP and Methionine, 2% DMSO, 120 minutes at RT, absorbance at 635 nm; read-out: MAT2A_LEC IC50 (uM) (Num)
# Procedure: Determination of Mat2A Activity Measurement of Mat2A inhibition is performed in 384 well format absorbance-based assay. […] The absorbance signal is measured at λ=635 nm with a multiplate reader (BMG Pherastar reader or equivalent) after 30 min of equilibration at RT.
Item-by-item account of IC50
Please respond with the number in µM and leave the unit unwritten.

# count of solved cases: 2
Cc1cc(-c2nccc3[nH]nc(C4CC4)c23)ccc1S(C)(=O)=O: 0.048
Cc1cc(-c2nccc3[nH]cc(C(F)(F)F)c23)ccc1S(C)(=O)=O: 0.029

So, Cc1cc(-c2ncc(NCCCN)c3[nH]nc(C4CC4)c23)ccc1S(C)(=O)=O ? Its IC50 was 0.04

----------
Item-by-item account of log10 IC50
# target-of-assay: Recombinant human Mat2a (Homo sapiens (Human), UniProt P31153)
# test-summary: Determination of Mat2A activity (384 well absorbance-based assay, Biomol Green)
# Assay type: biochemical
# test-settings: 12.5 nM Mat2A, 100 μM ATP and Methionine, 2% DMSO, 120 minutes at RT, absorbance at 635 nm; read-out: MAT2A_LEC IC50 (uM) (Num)
Transform log10 | Measure IC50 | Unit µM

Cc1cc(-c2nccc3[nH]nc(OC(F)F)c23)ccc1S(=O)(=O)CCO: -1.29
COCS(=O)(=O)c1ccc(-c2nccc3[nH]nc(OC(F)F)c23)cc1C: -1.68
CNC(=O)c1ncc2[nH]nc(C3CC3)c2c1-c1ccc(S(=O)(=O)C2CC2)c(C)c1 [Example 89]: -1.46
Cc1cc(-c2c(C(=O)NC3COC3)ncc3[nH]nc(OC(F)F)c23)ccc1S(=O)(=O)C(F)F: -1.89
CCOc1n[nH]c2ccnc(-c3ccc(S(C)(=O)=O)c(C)c3)c12: -0.89
Cc1cc([S+](C)[O-])c(C(F)F)cc1-c1c(C#N)ncc2[nH]nc(OC(F)F)c12 (centres unmarked): -1.21
CN=S(C)(=O)c1ccc2[nH]nc(C3CC3)c2c1-c1ccc(S(C)(=O)=O)c(C)c1 (centres unmarked): -0.51
CS(=O)(=O)c1ccc(-c2nccc3[nH]nc(C4CC4)c23)cc1CF: -0.96

So, Cc1cc(-c2c(S(C)(=O)=O)ccc3[nH]nc(C4CC4)c23)ccc1S(C)(=O)=O ? Its log10 IC50 was -1.89

So, CS(=O)(=O)c1ccc(-c2nccc3[nH]nc(C4CC4)c23)cc1N ? Its log10 IC50 was -0.59
